test system: MOLT-4 leukemia; assay: NCI-60 one-dose screen, 48 h; settings: 10 µM unless noted
The panel holds about 83,000 compounds, 20% with a hit somewhere; the sample as a whole holds those more often. Active and inactive are the calls of the source. The calls were made as follows: active = growth percent below 10; inactive = the rest.
Labels: active, inactive

INSERT INTO measurements (compound, cat) VALUES
  ('CN1C(=O)C(O)(CC(=O)c2cc3ccccc3oc2=O)c2ccccc21 (stereo not drawn)', 'inactive'),
  ('CCN1C(=O)N(CC)C2NNC(Sc3c(C(=O)O)c4ccccc4n(CC(C)C)c3=O)=NC21 (stereo not drawn)', 'active'),
  ('COc1ccc2[nH]cc(-c3cc4nc(-c5cn(C)c6ncc(Br)cc56)cc(N)n4n3)c2c1', 'active'),
  ('O=C(Nc1nc2ccccc2s1)Nc1ccccc1Cl', 'inactive'),
  ('CC(C)(C)C(=O)c1c2c(c3ccc4c5ccccc5ccc4n13)C(=O)c1ccccc1C2=O', 'inactive'),
  ('N#C/C(=C/c1ccc([N+](=O)[O-])cc1)c1nnc(NC(=O)c2ccc(-n3c(=O)[nH]c4ccccc4c3=O)cc2)s1', 'inactive'),
  ('CCN(C(=O)CN1C(=O)/C(=C/c2ccco2)SC1=S)C1CCS(=O)(=O)C1 (stereo not drawn)', 'inactive'),
  ('COc1ccc(-n2c(NC(=O)N3CCN(C)CC3)c(C#N)c3ccccc32)cc1', 'inactive'),
  ('COc1ccc(-c2nc3ccc(-c4nnc(SCc5ccccc5)o4)cc3[nH]2)cc1OC', 'inactive'),
  ('Cc1ccc(-c2cc(-c3ccccc3)[nH]c(=O)c2C#N)cc1', 'inactive'),
  ('COc1ccc2[nH]c(O)c(N=Nc3nc(-c4ccccc4)cs3)c2c1', 'inactive'),
  ('O=C(CSc1nnc(-c2ccc(-c3nc4ccc(Cl)cc4[nH]3)cc2)o1)Nc1ccc(Cl)cc1', 'active'),
  ('Cc1ccc(Cl)cc1NC(=O)Nc1nc2ccc([N+](=O)[O-])cc2s1', 'active'),
  ('COc1ccc2c(c1)C(Sc1ccc(Br)cc1)c1c(nc(N)c(C#N)c1N)O2 (stereo not drawn)', 'inactive'),
  ('COc1ccc2oc(=O)c(-c3csc(N/N=C(\C)c4cc(OC)c(OC)c(OC)c4)n3)cc2c1', 'inactive'),
  ('CS(=O)(=O)Nc1cc(-c2ccc3ncnc(Nc4ccc(OCc5cccnc5)c(Cl)c4)c3c2)cnc1Cl', 'active'),
  ('COC(=O)CSC1=C(C)C(=O)C(OC)=C(OC)C1=O', 'inactive'),
  ('N#Cc1cc(-c2ccc3ncnc(N4CCc5cc(F)c(Cl)cc54)c3c2)cnc1N', 'active'),
  ('C=CC[n+]1cccc2c3ccccc3ccc21', 'inactive'),
  ('Cc1cccc(/C=C/c2ccc(NC(=S)NCCCCN(C)C)cc2)c1', 'active'),
  ('O=C(N/N=C/c1c[nH]c2ccccc12)Nc1ccc(F)c(Cl)c1', 'inactive'),
  ('COc1c2c(c(Br)c3c1C(CCc1ccccc1)N(C)CC3)OCO2 (stereo not drawn)', 'inactive'),
  ('COc1ccc(C2=Nc3c(N)nc(N)nc3NC(c3ccc(Oc4nc(Nc5ccc(F)cc5)nc(N(C)C)n4)c(OC)c3)C2)cc1 (stereo not drawn)', 'inactive'),
  ('CC(C)(C)C(=O)C1CC(C#N)=C2C=Cc3c(ccc4ccccc34)N21 (stereo not drawn)', 'inactive'),
  ('CN(C)c1ccc(/C=C/c2n(Cc3ccc4ccccc4c3)c3ccccc3[n+]2Cc2ccc3ccccc3c2)cc1', 'active'),
  ('Nc1nc2cc(-c3ccc4ncnc(NCc5ccccc5)c4c3)ccc2o1', 'active'),
  ('COc1ccc(-c2cc(C(=O)OCc3ccc(Br)cc3)nn2-c2ccc(S(C)(=O)=O)cc2)cc1OC', 'inactive'),
  ('OC(c1ccccc1)(c1ccccc1)C1CCN(c2ccc3nnc(Cl)n3n2)CC1', 'active');
